Test system: Escherichia coli TOP10
Assay: shrunken log2 fold change of peptide-encoding DNA abundance (4.5 h post-induction vs induction); higher = less antimicrobial activity (less host growth inhibition)
Conditions: time post-induction: 4.5 h; library: site-saturation at positions 5, 18, 19, 20
Response field class: string, computed from recorded shrunken log2 fold change by ranges low end (below -0.05), middle (-0.05 to below 0.06), high end (0.06 or more)

The following sequences have reported results that may help.
- Chain Sequence: "RRIRFRPPRLPRPRPRPIFWPRP"
  System: "Escherichia coli TOP10"
  Category Label: "high end"
- Chain Sequence: "RRIRRRPPRLPRPRPRPFGGPRP"
  System: "Escherichia coli TOP10"
  Category Label: "middle"
- Chain Sequence: "RRIRWRPPRLPRPRPRPCTTPRP"
  System: "Escherichia coli TOP10"
  Category Label: "low end"
- Chain Sequence: "RRIRLRPPRLPRPRPRPKQTPRP"
  System: "Escherichia coli TOP10"
  Category Label: "middle"
- Chain Sequence: "RRIRFRPPRLPRPRPRPCSWPRP"
  System: "Escherichia coli TOP10"
  Category Label: "low end"

Please indicate the class for RRIRQRPPRLPRPRPRPHDHPRP based on its shrunken log2 fold change.
low end

Using the reported shrunken log2 fold change, which band applies to RRIRKRPPRLPRPRPRPPDRPRP ?
high end

Class? Entry: RRIRFRPPRLPRPRPRPREWPRP
high end

Which category does the recorded shrunken log2 fold change put RRIRMRPPRLPRPRPRPAHSPRP in?
high end

Kindly identify the class of RRIRNRPPRLPRPRPRPWFLPRP .
low end

Lab log: RRIRTRPPRLPRPRPRPQTKPRP — assign shrunken log2 fold change category
middle

Band assignment needed for RRIRGRPPRLPRPRPRPWHYPRP please.
middle

Field: class (shrunken log2 fold change) — entry: RRIRYRPPRLPRPRPRPSTPPRP
low end

Exam item: assign RRIRDRPPRLPRPRPRPFEKPRP to the correct category.
middle

Returns: class label. Input: RRIRRRPPRLPRPRPRPSEYPRP
low end

====

Test system: Escherichia coli TOP10
Experiment: shrunken log2 fold change of peptide-encoding DNA abundance (4.5 h post-induction vs induction); higher = less antimicrobial activity (less host growth inhibition)
Conditions: time post-induction: 4.5 h; library: site-saturation at positions 5, 18, 19, 20
Parameter Measured: shrunken log2 fold change
One number for each entry.

Example cases with answers are listed next.
- Chain Sequence: "RRIRSRPPRLPRPRPRPDCWPRP"
  Observed Value: 0.362
- Chain Sequence: "RRIRRRPPRLPRPRPRPWLAPRP"
  Observed Value: 0.35
- Chain Sequence: "RRIRTRPPRLPRPRPRPDPPPRP"
  Observed Value: 0.517

Quick request: shrunken log2 fold change for each listed item, please.
1. RRIRLRPPRLPRPRPRPFNKPRP
2. RRIRPRPPRLPRPRPRPQSYPRP
3. RRIRMRPPRLPRPRPRPNIKPRP
4. RRIRSRPPRLPRPRPRPPKFPRP
5. RRIRARPPRLPRPRPRPRHSPRP

[-0.324, -0.202, -0.266, -0.479, -0.00589]

====

Could you please report measured shrunken log2 fold change for the items listed next?
Tested on: Escherichia coli TOP10;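 also: peptides expressed intracellularly from a pBAD plasmid library in pooled LB shake-flask culture, induced with 0.3% L-arabinose, DNA abundance read by NGS, three biological replicates, DESeq2 with apeglm shrinkage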
Test: shrunken log2 fold change of peptide-encoding DNA abundance (4.5 h post-induction vs induction); higher = less antimicrobial activity (less host growth inhibition)
Conditions: time post-induction: 4.5 h; library: site-saturation at positions 5, 18, 19, 20

Solved entries (count: 8):
- Chain Sequence: "RRIRQRPPRLPRPRPRPPILPRP"
  System: "Escherichia coli TOP10"
  shrunken log2 fold change: -0.13
- Chain Sequence: "RRIRHRPPRLPRPRPRPCNKPRP"
  System: "Escherichia coli TOP10"
  shrunken log2 fold change: -0.395
- Chain Sequence: "RRIRRRPPRLPRPRPRPRTCPRP"
  System: "Escherichia coli TOP10"
  shrunken log2 fold change: 0.477
- Chain Sequence: "RRIRPRPPRLPRPRPRPQADPRP"
  System: "Escherichia coli TOP10"
  shrunken log2 fold change: 0.154
- Chain Sequence: "RRIRCRPPRLPRPRPRPLHTPRP"
  System: "Escherichia coli TOP10"
  shrunken log2 fold change: -0.0899
- Chain Sequence: "RRIRFRPPRLPRPRPRPQTAPRP"
  System: "Escherichia coli TOP10"
  shrunken log2 fold change: -0.337
- Chain Sequence: "RRIRHRPPRLPRPRPRPIGKPRP"
  System: "Escherichia coli TOP10"
  shrunken log2 fold change: 0.0218
- Chain Sequence: "RRIRYRPPRLPRPRPRPGKQPRP"
  System: "Escherichia coli TOP10"
  shrunken log2 fold change: -0.0708

For each of the items listed, what is its shrunken log2 fold change?
1. RRIRFRPPRLPRPRPRPGNQPRP
2. RRIRARPPRLPRPRPRPLLMPRP
3. RRIRKRPPRLPRPRPRPISQPRP
4. RRIRWRPPRLPRPRPRPLEAPRP
5. RRIRNRPPRLPRPRPRPRLEPRP

1: -0.00933; 2: 0.384; 3: 0.113; 4: 0.668; 5: 0.317

Parameters: items (list). Returns: shrunken log2 fold change for each item.
1. RRIRPRPPRLPRPRPRPSIDPRP
2. RRIRSRPPRLPRPRPRPALCPRP
3. RRIRARPPRLPRPRPRPLREPRP
4. RRIRRRPPRLPRPRPRPLGGPRP
5. RRIRLRPPRLPRPRPRPIIQPRP
6. RRIRERPPRLPRPRPRPMYVPRP
7. RRIRARPPRLPRPRPRPRDCPRP
8. RRIRSRPPRLPRPRPRPTMIPRP

-0.598
0.292
1.16
0.376
-0.439
-0.0843
0.391
-0.163

Reference source: the supplement of paper PMC9112550
